tested on: NCI-H1651 (Lung Adenocarcinoma); test: combination Emax (second highest fraction inhibited in the dose matrix, 72 h); higher = more inhibition; extreme values may be limits of the assay
MEASURED_PROPERTY: combination Emax

# example entries with known answers
- CCN(CCO)CCCOc1ccc2c(Nc3cc(CC(=O)Nc4cccc(F)c4)[nH]n3)ncnc2c1 [AZD2811] + O=C(c1cc(Cc2n[nH]c(=O)c3ccccc23)ccc1F)N1CCN(C(=O)C2CC2)CC1 [Olaparib] (first compound max 1 µM, 7x7, partner max 10 µM): 0.248
- CC(=O)c1c(C)c2cnc(Nc3ccc(N4CCNCC4)cn3)nc2n(C2CCCC2)c1=O [Palbociclib] + Cn1cnc2c(F)c(Nc3ccc(Br)cc3Cl)c(C(=O)NOCCO)cc21 [Selumetinib] (first compound max 10 µM, 7x7, partner max 10 µM): 0.0478
- CN(CCO)CC[C@H](CSc1ccccc1)Nc1ccc(S(=O)(=O)NC(=O)c2ccc(N3CCC([C@@H](O)c4ccccc4-c4ccc(Cl)cc4)CC3)cc2)cc1S(=O)(=O)C(F)(F)F [AZD4320] + Cn1cnc2c(F)c(Nc3ccc(Br)cc3Cl)c(C(=O)NOCCO)cc21 [Selumetinib] (first compound max 1 µM, 7x7, partner max 3 µM): 0.39

Okay, now this compound:
IN: Dear colleague, please send me the reported combination Emax for N#Cc1cnc(Nc2cc(NC[C@H]3CNCCO3)c(C(F)(F)F)cn2)cn1 [SRA737] + Nc1ccn([C@@H]2O[C@H](CO)[C@@H](O)C2(F)F)c(=O)n1 [Gemcitabine] (first compound max 10 µM, 7x7, partner max 0.3 µM) when you can.
OUT: 0.735

These data points were gathered from the supplement of paper PMC11061612.
